- system_name: HIV-1 Env of ZM135.10a (HIV-1)
- assay_remarks: cell-based or functional assay
endpoint_label: neutralization IC50

Worked cases, answers included:
binder: CAP256-VRC26.08 (antibody, V domains shown) VH: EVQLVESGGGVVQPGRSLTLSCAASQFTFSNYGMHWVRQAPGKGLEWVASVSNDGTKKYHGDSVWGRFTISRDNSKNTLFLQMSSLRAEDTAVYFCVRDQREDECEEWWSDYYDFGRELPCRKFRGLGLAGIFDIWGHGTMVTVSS VL: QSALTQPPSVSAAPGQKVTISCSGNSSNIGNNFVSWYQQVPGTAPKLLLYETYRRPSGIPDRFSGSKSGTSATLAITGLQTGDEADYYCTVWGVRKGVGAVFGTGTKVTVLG
neutralization IC50: > 50 µg/mL

binder: CAP256-VRC26.11 (antibody, V domains shown) VH: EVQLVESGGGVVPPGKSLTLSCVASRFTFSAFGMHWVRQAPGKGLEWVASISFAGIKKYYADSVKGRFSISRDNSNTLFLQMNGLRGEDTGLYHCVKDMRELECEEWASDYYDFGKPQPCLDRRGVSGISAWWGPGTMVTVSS VL: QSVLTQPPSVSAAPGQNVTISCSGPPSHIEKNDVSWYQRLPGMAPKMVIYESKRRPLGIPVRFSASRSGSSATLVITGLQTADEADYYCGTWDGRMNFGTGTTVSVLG
neutralization IC50: > 50 µg/mL

// returns reported neutralization IC50 for input CAP256-VRC26.02 (antibody, V domains shown) VH: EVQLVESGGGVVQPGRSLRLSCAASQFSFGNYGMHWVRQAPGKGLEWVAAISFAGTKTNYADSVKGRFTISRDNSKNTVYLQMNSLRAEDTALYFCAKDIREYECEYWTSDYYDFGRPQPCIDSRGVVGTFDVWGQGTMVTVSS VL: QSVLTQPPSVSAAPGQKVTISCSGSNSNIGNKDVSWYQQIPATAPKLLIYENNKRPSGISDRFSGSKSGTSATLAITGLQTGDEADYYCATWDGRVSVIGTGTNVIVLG
> 50 µg/mL
